- System: HBsAg
- protocol: PHH HBV natural infection assay, HBsAg (alphalisa)
- Type: cell-based
- runConditions: read-out: HBsAg IC50; HBV-infected PHH, culture supernatant, compound refreshed two times with 72-hour interval, alphalisa
Assign IC50 to each entry below.
Express the reported value numerically, then name its unit.

Please report the recorded IC50 for [H][C@]1(NC(=O)c2ccnc(C(N)=O)c2)C[C@]2(C1)C[C@]([H])(c1nc3cc(Cl)ccc3s1)C2 (single isomer, unassigned) [Example 53-b] .
5960 nM

Cool, now [H][C@]1(NC(=O)c2ccnc(S(=O)(=O)C3CC3)c2)C[C@]2(C1)C[C@]([H])(c1nc3cc(Cl)ccc3s1)C2 (single isomer, unassigned) [Example 55-b]
540 nM

Then [H][C@]1(NC(=O)c2ccnc(C(N)=O)c2)C[C@@]2(C1)C[C@]([H])(c1nc3cc(Cl)ccc3s1)C2 (single isomer, unassigned) [Example 53-a] ?
290 nM

Thanks! And [H][C@]1(NC(=O)c2ccnc(S(C)(=O)=O)c2)C[C@@]2(C1)C[C@]([H])(c1nc3cc(Cl)ccc3s1)C2 (single isomer, unassigned) [Example 54-a] ?
2460 nM

Try this molecule next: [H][C@]1(NC(=O)c2ccnc(S(=O)(=O)C3CC3)c2)C[C@@]2(C1)C[C@]([H])(c1nc3cc(Cl)ccc3s1)C2 (single isomer, unassigned) [Example 55-a]
1560 nM

// query: [H][C@]1(NC(=O)c2cc(C(N)=O)ncn2)C[C@]2(C1)C[C@]([H])(c1nc3cc(Cl)ccc3s1)C2 (single isomer, unassigned) [Example 56-b]
3300 nM

Then what about the molecule [H][C@]1(NC(=O)c2ccnc(S(C)(=O)=O)c2)C[C@]2(C1)C[C@]([H])(c1nc3cc(Cl)ccc3s1)C2 (single isomer, unassigned) [Example 54-b] ?
280 nM
